- TARGET_OR_SYSTEM: T1, Spt6-tSH2 E1324A (C. glabrata, UniProt Q6FLB1 1250-1444, E1324A)
- T1 sequence (looked up): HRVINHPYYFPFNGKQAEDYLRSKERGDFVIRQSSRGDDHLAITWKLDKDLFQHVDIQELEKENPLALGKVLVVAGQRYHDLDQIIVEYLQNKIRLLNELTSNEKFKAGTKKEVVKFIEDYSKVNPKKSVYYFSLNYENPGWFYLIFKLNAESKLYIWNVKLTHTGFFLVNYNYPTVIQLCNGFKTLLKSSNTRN
- PROCEDURE_TEXT: fluorescence polarisation
Square brackets hold non-standard residues; d marks the D form. Ends that are not written are not given here. pY = N[C@@H](Cc1ccc(OP(=O)(O)O)cc1)C(=O)O
MEASURE: Kd (nM)
Answer in nM, number only, no unit symbol.

// sample {5,6‑FAM}-PS[pY]SPTSPS[pY]SPTSPS [(pY1-CTD)2, FAM-labelled tyrosine-phosphorylated CTD diheptad] , its Kd was 1400
